- EXPERIMENTAL_SYSTEM: Menin (Homo sapiens)
- Sequence (O00255 whole entry): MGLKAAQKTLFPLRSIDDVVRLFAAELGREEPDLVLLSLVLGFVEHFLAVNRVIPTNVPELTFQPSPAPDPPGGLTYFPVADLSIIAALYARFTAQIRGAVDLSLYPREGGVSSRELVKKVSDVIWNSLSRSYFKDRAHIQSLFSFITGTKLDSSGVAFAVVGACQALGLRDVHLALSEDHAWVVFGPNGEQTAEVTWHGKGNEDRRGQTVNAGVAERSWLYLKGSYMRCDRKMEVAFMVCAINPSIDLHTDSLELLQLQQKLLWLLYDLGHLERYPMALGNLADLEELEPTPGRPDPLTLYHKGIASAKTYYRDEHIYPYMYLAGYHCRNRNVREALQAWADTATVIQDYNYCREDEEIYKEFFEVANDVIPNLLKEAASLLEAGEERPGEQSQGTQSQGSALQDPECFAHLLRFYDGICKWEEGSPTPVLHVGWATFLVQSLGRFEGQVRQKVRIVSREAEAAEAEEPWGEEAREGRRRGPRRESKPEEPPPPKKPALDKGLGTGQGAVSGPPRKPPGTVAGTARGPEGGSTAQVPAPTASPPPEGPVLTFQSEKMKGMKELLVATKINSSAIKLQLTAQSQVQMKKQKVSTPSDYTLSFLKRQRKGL
*1 amine or outer side, *2 acyl side, *3 side chain or, on linkers, in order; H or OH if unused. Where a SMILES comes first, the peptide text is derived from it. Bridges are numbered along the chain shown (N, C = ends). [ ]: non-standard residue; d: D form. Phe(3-CF3) = N[C@@H](Cc1cccc(C(F)(F)F)c1)C(=O)O; hhhhLys = O=C([C@H](CCCCCCCCN[*:3])N[*:1])[*:2]; X1 = CCc1cccc(C[C@H](N[*:1])C(=O)[*:2])c1; Cha = N[C@@H](CC1CCCCC1)C(=O)O; Ac4c = NC1(C(=O)O)CCC1; Aib = CC(C)(N)C(=O)O
RESULT_TYPE: IC50 (nM)

Illustrative cases are given below, each with its answer.
| COMPOUND | IC50 [nM] |
| --- | --- |
| N=C(N)NCCC[C@@H]1NC(=O)C2(CCC2)NC(=O)[C@@H]2CCCN2C(=O)[C@H](Cc2cccc(C(F)(F)F)c2)NC(=O)[C@@H](N)CCCCCCCCNC(=O)[C@@H]2CCCN2C1=O (H-[hhhhLys][Phe(3-CF3)]P[Ac4c]RP; lactam 1-C) | 2520 |
| CC1(C)NC(=O)[C@@H]2CCCN2C(=O)[C@H](Cc2ccccc2)NC(=O)[C@@H](N)CCCCCCCCNC(=O)[C@@H]2CCCN2C(=O)[C@H](CCCNC(=N)N)NC1=O (H-[hhhhLys]FP[Aib]RP; lactam 1-C) | 226 |
| CCc1cccc(C[C@@H]2NC(=O)[C@@H](N)CCCCCCCCNC(=O)[C@@H]3CCCN3C(=O)[C@H](CCCNC(=N)N)NC(=O)C3(CCC3)NC(=O)[C@@H]3CCCN3C2=O)c1 (H-[hhhhLys][X1]P[Ac4c]RP; lactam 1-C) | 4610 |

(P) CC(=O)N[C@H]1CCCCCCCCNC(=O)[C@@H]2CCCN2C(=O)[C@H](CCCNC(=N)N)NC(=O)[C@H](C)NC(=O)[C@@H]2CCCN2C(=O)[C@H](Cc2ccccc2)NC1=O (Ac-[hhhhLys]FPARP; lactam 1-C)
(Q) N=C(N)NCCC[C@@H]1NC(=O)C2(CCC2)NC(=O)[C@@H]2CCCN2C(=O)[C@H](CC2CCCCC2)NC(=O)[C@@H](N)CCCCCCCCNC(=O)[C@@H]2CCCN2C1=O (H-[hhhhLys][Cha]P[Ac4c]RP; lactam 1-C)
Param metric = IC50; output whichever of P , Q has the minimum value. Write down the label attached to your selection.
P
(P: 2160 nM, Q: 3330 nM)

###

- EXPERIMENTAL_SYSTEM: Menin (Homo sapiens)
- ASSAY_EXPLANATION: Binding affinity to menin (unknown origin) after 60 mins by fluorescence polarization assay
RESULT_TYPE: IC50 (µM)

| SUBSTANCE | IC50 / µM |
| --- | --- |
| Ac-RWRFPAR-NH2 | 85.3 |
| Ac-RWRFPARP-NH2 | 0.232 |

(P) Ac-WRFPARP-NH2
(Q) Ac-RFPARP-NH2
Which value of IC50 is numerically greater: that of P or that of Q ? Write down the label attached to your selection.
Q
(Q: 9.57 µM, P: 1.06 µM)

###

*1 amine or outer side, *2 acyl side, *3 side chain or, on linkers, in order; H or OH if unused. Where a SMILES comes first, the peptide text is derived from it. Bridges are numbered along the chain shown (N, C = ends). [ ]: non-standard residue; d: D form. hhhhLys = O=C([C@H](CCCCCCCCN[*:3])N[*:1])[*:2]; Phe(4-Cl) = N[C@@H](Cc1ccc(Cl)cc1)C(=O)O; Phe(2-F) = N[C@@H](Cc1ccccc1F)C(=O)O; Ac4c = NC1(C(=O)O)CCC1
Test system Menin (Homo sapiens), IC50 listed for each of the compounds.
RESULT_TYPE: IC50 (nM)

(1) N=C(N)NCCC[C@@H]1NC(=O)C2(CCC2)NC(=O)[C@@H]2CCCN2C(=O)[C@H](Cc2ccccc2F)NC(=O)[C@@H](N)CCCCCCCCNC(=O)[C@@H]2CCCN2C1=O (H-[hhhhLys][Phe(2-F)]P[Ac4c]RP; lactam 1-C)
(2) N=C(N)NCCC[C@@H]1NC(=O)C2(CCC2)NC(=O)[C@@H]2CCCN2C(=O)[C@H](Cc2ccc(Cl)cc2)NC(=O)[C@@H](N)CCCCCCCCNC(=O)[C@@H]2CCCN2C1=O (H-[hhhhLys][Phe(4-Cl)]P[Ac4c]RP; lactam 1-C)
Which value of IC50 is numerically greater: that of 1 or that of 2 ? Write down the label attached to your selection.
2

The reported numbers originate from ChEMBL document CHEMBL2311406.
